Biological target: T1, E4-Fc (amino acids 1-497 of ErbB4 joined to the IgG2Fc portion) (UniProt Q15303 26-522; P01859 104-326 = IgG part)
T1 construct: range 1-497;domain: IgG2Fc; Control trap; The 1-497 range counts on mature ErbB4 without the signal peptide; also called ErbB4-IgGFc
T1 sequence (Q15303 other isoform, or with tags, fused parts or gaps limits assumed): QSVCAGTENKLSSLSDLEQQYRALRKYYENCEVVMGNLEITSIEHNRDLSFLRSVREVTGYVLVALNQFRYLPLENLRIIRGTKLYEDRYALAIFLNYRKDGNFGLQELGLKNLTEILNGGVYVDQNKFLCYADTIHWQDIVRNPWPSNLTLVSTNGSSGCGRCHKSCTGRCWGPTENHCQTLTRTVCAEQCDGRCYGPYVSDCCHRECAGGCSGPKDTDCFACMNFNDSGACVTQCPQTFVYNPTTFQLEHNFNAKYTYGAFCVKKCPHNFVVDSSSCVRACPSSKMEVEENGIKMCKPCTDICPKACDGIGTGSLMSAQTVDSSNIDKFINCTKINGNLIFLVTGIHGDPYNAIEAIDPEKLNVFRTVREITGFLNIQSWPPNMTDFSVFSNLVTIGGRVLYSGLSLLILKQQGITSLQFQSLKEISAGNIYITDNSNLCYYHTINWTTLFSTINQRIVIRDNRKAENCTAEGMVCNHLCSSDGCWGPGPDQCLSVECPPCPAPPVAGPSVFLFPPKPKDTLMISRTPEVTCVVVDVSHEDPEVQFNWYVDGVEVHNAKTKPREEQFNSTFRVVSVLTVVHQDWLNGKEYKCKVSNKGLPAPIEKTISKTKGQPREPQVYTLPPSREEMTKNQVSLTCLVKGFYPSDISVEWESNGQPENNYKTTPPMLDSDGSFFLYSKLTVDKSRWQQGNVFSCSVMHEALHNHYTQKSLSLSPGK
Test: trap coated on 96 well plate, varying HRG1β, detection antibody; Std Error Kd 3.128 nM
Protocol: Purified trap molecules were coated on 96 well plates and incubated with either TGFα or HRG1β. Then detection antibodies against TGFα or HRG1β were used to measure the affinity (Kd) and amount of bound ligand (Bmax). Traps were coated on 96 well plates and incubated with varying concentrations of either TGFα or HRG1β. Detection antibodies against TGFα or HRG1β were used to measure the affinity (Kd) and amount of bound ligand (Bmax).
Measured Quantity: pKd
Bear in mind: pKd is minus log10 of a mol/L concentration; give just that figure.

Recorded pKd for HRG1β (ligand, UniProt Q02297-6 177-241, looked up, Soluble ligand incubated with the coated traps; also called heregulin) SHLVKCAEKEKTFCVNGGECFMVKDLSNPSRYLCKCPNEFTGDRCQNYVMASFYKHLGIEFMEAE , please?
7.84
